Target: Phosphatidylinositol 4,5-bisphosphate 3-kinase catalytic subunit delta isoform (Homo sapiens, UniProt O00329)
Sequence (O00329 whole entry): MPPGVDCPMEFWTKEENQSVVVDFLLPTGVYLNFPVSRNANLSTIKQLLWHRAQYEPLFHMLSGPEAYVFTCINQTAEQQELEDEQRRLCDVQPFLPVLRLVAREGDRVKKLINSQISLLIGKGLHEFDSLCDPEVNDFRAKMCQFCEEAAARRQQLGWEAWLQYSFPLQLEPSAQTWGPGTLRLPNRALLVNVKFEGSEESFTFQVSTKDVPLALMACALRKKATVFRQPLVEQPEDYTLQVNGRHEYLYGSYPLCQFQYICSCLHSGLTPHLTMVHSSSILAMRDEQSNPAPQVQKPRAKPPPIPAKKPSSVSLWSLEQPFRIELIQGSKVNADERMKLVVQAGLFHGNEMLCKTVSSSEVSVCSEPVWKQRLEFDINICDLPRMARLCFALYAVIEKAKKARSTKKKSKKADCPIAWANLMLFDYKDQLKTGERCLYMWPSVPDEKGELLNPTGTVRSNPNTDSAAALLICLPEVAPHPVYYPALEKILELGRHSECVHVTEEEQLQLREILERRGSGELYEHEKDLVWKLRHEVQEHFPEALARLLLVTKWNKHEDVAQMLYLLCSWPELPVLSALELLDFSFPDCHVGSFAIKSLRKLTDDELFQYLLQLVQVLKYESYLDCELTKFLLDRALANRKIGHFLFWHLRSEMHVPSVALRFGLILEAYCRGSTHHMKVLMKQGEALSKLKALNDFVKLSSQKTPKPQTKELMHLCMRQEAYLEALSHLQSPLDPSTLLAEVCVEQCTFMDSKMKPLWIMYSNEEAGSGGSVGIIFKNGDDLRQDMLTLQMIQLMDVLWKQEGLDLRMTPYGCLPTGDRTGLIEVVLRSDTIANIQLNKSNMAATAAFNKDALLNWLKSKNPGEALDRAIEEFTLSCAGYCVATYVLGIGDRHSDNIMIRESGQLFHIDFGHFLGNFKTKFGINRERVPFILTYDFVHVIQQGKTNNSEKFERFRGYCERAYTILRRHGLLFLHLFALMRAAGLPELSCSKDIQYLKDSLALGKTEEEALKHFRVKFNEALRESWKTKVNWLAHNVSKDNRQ
Test: Inhibition of recombinant human PI3Kdelta assessed as reduction in ADP production using Dic8-PIP2 as substrate pre-treated for 15 mins followed by substrate addition measured after 60 mins by ADP-glo assay
pIC50: −log10 of the molar value.
assay_readout: pIC50

>>> reported("Cc1nc2sc1-c1cc3c(c(c1)S(=O)(=O)Nc1ccc(cc1)CN(C)CCCNC(=O)c1cccc(n1)N2)C(=O)N([C@@H](C)C1CC1)C3")
9.10
>>> reported("CNS(=O)(=O)c1cc(-c2sc(Nc3cccc(N(C)C(C)=O)n3)nc2C)cc2c1C(=O)N([C@@H](C)C1CC1)C2")
9.10
>>> reported("CNS(=O)(=O)c1cc(-c2sc(Nc3cccc(C(=O)NCCCN(C)C)n3)nc2C)cc2c1C(=O)N([C@@H](C)C1CC1)C2")
8.40
>>> reported("CNS(=O)(=O)c1cc(-c2sc(Nc3cccc(N4C[C@H](O)CC4=O)n3)nc2C)cc2c1C(=O)N([C@@H](C)C1CC1)C2")
8.90
>>> reported("CNS(=O)(=O)c1cc(-c2sc(Nc3cccc(N4CCN(C)CC4=O)n3)nc2C)cc2c1C(=O)N([C@@H](C)C1CC1)C2")
8.80
>>> reported("Cc1nc(Nc2cccc(N3CCNC3=O)n2)sc1-c1cc2c(c(S(=O)(=O)NC3COC3)c1)C(=O)N([C@@H](C)C1CC1)C2")
9.20
>>> reported("Cc1nc(Nc2cccc(N3CCN(C)C3=O)n2)sc1-c1cc2c(c(S(C)(=O)=O)c1)C(=O)N([C@@H](C)C1CC1)C2")
9.10
>>> reported("CC(=O)Nc1nc(C)c(-c2cc3c(c(S(=O)(=O)Nc4cc(C#N)cc(S(C)(=O)=O)c4)c2)C(=O)N([C@@H](C)C2CC2)C3)s1")
7.60
>>> reported("Cc1nc(Nc2cccc(-c3ocnc3CO)n2)sc1-c1cc2c(c(S(C)(=O)=O)c1)C(=O)N([C@@H](C)C1CC1)C2")
8.70
>>> reported("Cc1nc(-c2cccc(Nc3nc(C)c(-c4cc5c(c(S(C)(=O)=O)c4)C(=O)N([C@@H](C)C4CC4)C5)s3)n2)n(C)n1")
8.80
>>> reported("CC(=O)Nc1nc(C)c(-c2cc3c(c(S(=O)(=O)Nc4ccc(S(C)(=O)=O)cc4)c2)C(=O)N([C@@H](C)C2CC2)C3)s1")
6.80
>>> reported("Cc1nc(Nc2cccc(N3CCCCC3=O)n2)sc1-c1cc2c(c(S(C)(=O)=O)c1)C(=O)N([C@@H](C)C1CC1)C2")
8.90
>>> reported("Cc1nc(Nc2cccc(-c3nc(C)n(C)n3)n2)sc1-c1cc2c(c(S(C)(=O)=O)c1)C(=O)N([C@@H](C)C1CC1)C2")
7.60
>>> reported("CC(=O)Nc1nc(C)c(-c2cc3c(c(S(=O)(=O)Nc4ccc(CN(C)C)cc4)c2)C(=O)N([C@@H](C)C2CC2)C3)s1")
8.20
